ASSAYED SYSTEM: human SPPL2a (Homo sapiens, UniProt Q8TCT8)
Sequence (Q8TCT8 26-520): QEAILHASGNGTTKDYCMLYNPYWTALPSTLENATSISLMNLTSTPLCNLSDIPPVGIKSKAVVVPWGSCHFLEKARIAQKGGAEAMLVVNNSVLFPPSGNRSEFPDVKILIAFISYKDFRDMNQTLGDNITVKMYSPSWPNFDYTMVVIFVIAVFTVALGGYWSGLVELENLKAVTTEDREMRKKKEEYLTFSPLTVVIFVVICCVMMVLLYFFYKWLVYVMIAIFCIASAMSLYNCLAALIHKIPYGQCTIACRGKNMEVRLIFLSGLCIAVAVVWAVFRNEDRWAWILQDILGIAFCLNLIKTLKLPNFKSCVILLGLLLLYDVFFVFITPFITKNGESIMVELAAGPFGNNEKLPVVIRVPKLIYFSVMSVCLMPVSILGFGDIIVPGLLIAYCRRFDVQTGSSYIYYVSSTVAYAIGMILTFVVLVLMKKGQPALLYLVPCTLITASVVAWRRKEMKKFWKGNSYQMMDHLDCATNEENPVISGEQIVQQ
PROTOCOL DESCRIPTION: Sppl2a RGA (reporter gene assay) in HEK293 cells
Format: cell-based
Parameters: expressed in transfected cells; host or cells: HEK293 (transient)
CONDITION SET: NT-TNF-VP16-Gal4 substrate, Gal4-luciferase reporter, 24 h
Parameter IC50: see the listing below.
Express it in nM; write the number only.

[
  {
    "RECORD SMILES": "C[C@H](CC(=O)Nc1cc(-c2cc(C3CC3)no2)nn1C)C(=O)N[C@@H]1C(=O)N2CCCN2Cc2ccccc21",
    "ASSAYED SYSTEM": "human SPPL2a (Homo sapiens, UniProt Q8TCT8)",
    "QUANTITATIVE RESULT": 4
  },
  {
    "RECORD SMILES": "C[C@H](CC(=O)Nc1cc(C(=O)Nc2ccccc2F)nn1C)C(=O)N[C@@H]1C(=O)N2CCCN2Cc2ccccc21",
    "ASSAYED SYSTEM": "human SPPL2a (Homo sapiens, UniProt Q8TCT8)",
    "QUANTITATIVE RESULT": 3
  },
  {
    "RECORD SMILES": "Cc1nc(Cc2ccccc2)sc1C(=O)NC[C@@H](C)C(=O)N[C@@H]1C(=O)N2CCCN2Cc2ccccc21",
    "ASSAYED SYSTEM": "human SPPL2a (Homo sapiens, UniProt Q8TCT8)",
    "QUANTITATIVE RESULT": 194
  }
]

query: Provide one value: measured IC50 of CC[C@H](CNC(=O)c1ccnn1C(F)F)C(=O)N[C@@H]1C(=O)N2CC3(CC3)CN2C(=O)c2ccccc21
result: 101

query: Provide one value: measured IC50 of Cc1nc(C2CCOCC2)sc1C(=O)NC[C@H](C(=O)N[C@@H]1C(=O)N2CCCN2Cc2ccccc21)C(F)(F)F
result: 90
